assay: Pitavastatin uptake in plated rat hepatocytes with and without rifamycin SV (positive control for transporter activity); type: in vitro ADME; conditions: male, Sprague-Dawley, rat, plated primary rat hepatocytes; pitavastatin 0.2 μM, absence of rifamycin SV, 0.5-2 min; mean (CV 24%); read-out: Unbound intrinsic uptake clearance (CLint,u)
property: hepatocyte CLint at 0.2 μM

• O=C(O)C[C@H](O)C[C@H](O)/C=C/c1c(C2CC2)nc2ccccc2c1-c1ccc(F)cc1 [pitavastatin] = 95.7 µL/min/1e6 cells

---

system: plated rat hepatocytes; test: In vitro uptake kinetics of gadoxetate in plated rat hepatocytes (mechanistic hepatocyte model); format: in vitro ADME; conditions: animal 1; read-out: Km,u
property: Km

* CCOc1ccc(C[C@@H](CN(CCN(CC(=O)[O-])CC(=O)[O-])CC(=O)[O-])N(CC(=O)[O-])CC(=O)[O-])cc1.[Gd+3].[H+].[H+] [gadoxetate] | 114 µM
